Biological target: T1, human Ang-2 (human, UniProt O15123)
T1 chain: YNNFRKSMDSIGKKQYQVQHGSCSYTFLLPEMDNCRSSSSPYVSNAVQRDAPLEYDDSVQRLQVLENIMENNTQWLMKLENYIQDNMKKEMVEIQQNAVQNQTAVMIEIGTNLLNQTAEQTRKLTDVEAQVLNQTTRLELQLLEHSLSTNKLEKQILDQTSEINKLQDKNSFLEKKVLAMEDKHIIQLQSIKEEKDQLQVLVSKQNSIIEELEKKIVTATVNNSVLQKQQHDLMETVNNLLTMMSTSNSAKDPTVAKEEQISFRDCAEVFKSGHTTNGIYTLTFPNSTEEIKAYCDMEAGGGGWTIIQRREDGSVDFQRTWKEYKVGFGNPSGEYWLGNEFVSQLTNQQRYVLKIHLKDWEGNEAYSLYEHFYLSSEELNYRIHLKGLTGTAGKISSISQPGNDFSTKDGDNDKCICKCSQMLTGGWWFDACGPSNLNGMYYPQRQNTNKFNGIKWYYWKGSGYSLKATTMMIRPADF
Assay: competition ELISA vs Tie-2
Primed or numbered codes have the meaning given here. Where no end group is shown, it is not given here. [ ]: non-standard residue; d: D form. Fc(7) = Fc domain, peptide fused N- or C-terminal to it
Result type: pIC50
Give only the number. pIC50 is defined as minus log10 of concentration in molar units.

Query: pIC50; subject: M[Fc(7)]GGGGGAQVLGGQGCEWDPWTCRLLQGWLE (not fully specified (bridges); cysteine pairing not given here) [AC4-Con4 (C)] 8.81

Reported pIC50 for M[Fc(7)]GGGGGAQFGWSHGCEWDPWTCEHMGSTLE (not fully specified (bridges); cysteine pairing not given here) [AC2-Con4 (C)] : what is it? 9.28
